Tested on: Streptococcus pyogenes ATCC 8668 LRP 34
assay_name: Bacteriostatic power in liquid medium (MIC)
Format: cell-based
reported_conditions: Streptococcus pyogenes, ATCC8668; liquid medium; read-out: Minimum inhibiting concentration
Field: MIC. Provide a value for each of the compounds that follow.
Give bare numbers, in µg/mL.

Check out these entries, answers already filled in.
CC[C@H]1OC(=O)[C@H](C)[C@@H](O[C@H]2C[C@@](C)(O)[C@@H](O)[C@H](C)O2)[C@H](C)[C@@H](O[C@@H]2O[C@H](C)C[C@H](N(C)C)[C@H]2O)[C@](C)(O)C[C@](C)(F)C(=O)[C@H](C)[C@@H](O)[C@H]1C; 0.049
CO[C@H]1C[C@H](O[C@H]2[C@H](C)[C@@H](O[C@@H]3O[C@H](C)C[C@H](N(C)C)[C@H]3O)[C@@H](C)C[C@@]3(CO3)C(=O)[C@H](C)[C@@H](O)[C@@H](C)[C@@H](C)OC(=O)[C@@H]2C)O[C@@H](C)[C@@H]1O [Oleandomycin, reference compound]; 0.195
CC[C@H]1OC(=O)[C@H](C)[C@@H](O[C@H]2C[C@@](C)(OC)[C@@H](O)[C@H](C)O2)[C@H](C)[C@@H](O[C@@H]2O[C@H](C)C[C@H](N(C)C)[C@H]2O)[C@](C)(O)C[C@](C)(F)C(=O)[C@H](C)[C@@H](O)[C@H]1C; 0.024
CC[C@H]1OC(=O)[C@H](C)[C@@H](O[C@H]2C[C@@](C)(O)[C@@H](O)[C@H](C)O2)[C@H](C)[C@@H](O[C@@H]2O[C@H](C)C[C@H](N(C)C)[C@H]2O)[C@](C)(O)C[C@](C)(F)C(=O)[C@H](C)[C@@H](O)[C@]1(C)O; 0.049

Field: next compound
Sample CC[C@H]1OC(=O)[C@H](C)[C@@H](O[C@H]2C[C@@](C)(OC)[C@@H](O)[C@H](C)O2)[C@H](C)[C@@H](O[C@@H]2O[C@H](C)C[C@H](N(C)C)[C@H]2O)[C@](C)(O)C[C@@H](C)C(=O)[C@H](C)[C@@H](O)[C@H]1C [Erythromycin B, reference compound] — what was its MIC? 0.024
